src = the kinase profiling compilation of Christmann-Franck et al. (2016)

- Target Of Assay: UniProt Q6P2M8
- Sequence (Q6P2M8 whole entry, looked up): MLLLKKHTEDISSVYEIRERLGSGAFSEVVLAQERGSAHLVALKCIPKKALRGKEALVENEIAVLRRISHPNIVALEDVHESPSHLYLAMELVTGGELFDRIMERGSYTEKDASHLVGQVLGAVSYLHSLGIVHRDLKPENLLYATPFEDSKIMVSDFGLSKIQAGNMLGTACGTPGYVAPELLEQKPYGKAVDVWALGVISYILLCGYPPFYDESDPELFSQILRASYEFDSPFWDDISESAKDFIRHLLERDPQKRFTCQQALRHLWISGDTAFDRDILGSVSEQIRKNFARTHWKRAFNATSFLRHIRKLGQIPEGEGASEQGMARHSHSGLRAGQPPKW
- Protocol Summary: radiometric filter-binding kinase assay, Kinase HotSpot
- Condition Set: compound 0.5 µM; ATP 10 µM
Readout Kind: residual activity (%)
Form entry: value (%) — number only.

Guide cases for residual activity, answers given:
• Cc1cc2ncc(-c3ccccc3)nc2cc1C = 96.3
• O=C(Nc1ccc(Cl)cc1)c1ccccc1NCc1ccncc1 = 94.8

Record "O=C1Nc2cc(Br)ccc2/C1=C1/Nc2ccccc2/C1=N\O" ; system UniProt Q6P2M8; residual activity = 105

Record "CC(C)[C@H](CO)Nc1nc(Nc2cccc(Cl)c2)c2ncn(C(C)C)c2n1" ; system UniProt Q6P2M8; residual activity = 97.8

Record "CC(C)(C)c1nc2c3ccc(F)cc3c3c(=O)[nH]ccc3c2[nH]1" ; system UniProt Q6P2M8; residual activity = 112

Record "Nc1nc(Nc2ccc(S(N)(=O)=O)cc2)nn1C(=O)c1c(F)cccc1F" ; system UniProt Q6P2M8; residual activity = 107
